Assay: Thermodynamic (equilibrium) solubility of the compound measured after 3 days agitation in pH 7 buffer by LC-MS/MS analysis
Format: physicochemical
Details: time 3 day, read-out: Therm_solubility
METRIC_NAME: solubility thermodynamic at 72 h (µM)
Numeric only. Scale: µM

1) COCCN(CCOC)C[C@]1(OC)/C(F)=C/C[C@H](C)[C@@H](C)S(=O)(=O)NC(=O)c2ccc3c(c2)N(C[C@@H]2CCO[C@H]21)C[C@@]1(CCCc2cc(Cl)ccc21)CO3 = 1.1
2) CO[C@@]1(CN2CCN3CCCC[C@@H]3C2)/C(F)=C/C[C@H](C)[C@@H](C)S(=O)(=O)NC(=O)c2ccc3c(c2)N(C[C@@H]2CCO[C@H]21)C[C@@]1(CCCc2cc(Cl)ccc21)CO3 = 102
3) COc1nn(C)cc1C(=O)N[S@]1(=O)=NC(=O)c2ccc3c(c2)N(C[C@@H]2CCO[C@H]2[C@@H](OC)/C(F)=C/C[C@H](C)C1)C[C@@]1(CCCc2cc(Cl)ccc21)CO3 = 202

Now let's try a different one.
Determine from records and report solubility thermodynamic at 72 h for CO[C@H]1/C(F)=C/C[C@H](C)[C@@H](C)S(=O)(=O)NC(=O)c2cnc3c(n2)N(C[C@@H]2CCO[C@H]21)C[C@@]1(CCCc2cc(Cl)ccc21)CO3
143

---

Experiment: Cardiotoxicity risk in human iPSC-CM assessed as calcium transients at 10 uM by CTCM assay
Type: toxicity, cell-based
METRIC_NAME: Activity

Examples with their reported Activity follow.
1. CO[C@H]1/C(F)=C/C[C@H](C)[C@@H](C)S(=O)(=O)NC(=O)c2ccc3c(c2)N(C[C@@H]2CCO[C@H]21)C[C@@]1(CCCc2cc(Cl)ccc21)CO3 = Non-Toxic
2. COc1nn(C)cc1C(=O)N[S@@]1(=O)=NC(=O)c2ccc3c(c2)N(C[C@@H]2CCO[C@H]2[C@](CN2CCN4CCOC[C@@H]4C2)(OC)/C(F)=C/C[C@H](C)C1)C[C@@]1(CCCc2cc(Cl)ccc21)CO3 = Non-Toxic
3. CO[C@@]1(CN2CCN3CCOC[C@@H]3C2)/C(F)=C/C[C@H](C)[C@H](C)S(=O)(=O)NC(=O)c2ccc3c(c2)N(C[C@@H]2CCO[C@H]21)C[C@@]1(CCCc2cc(Cl)ccc21)CO3 = Toxic
4. CO[C@H]1/C=C/C[C@H](C)[C@@H](C)S(=O)(=O)NC(=O)c2ccc3c(c2)N(C[C@@H]2CCO[C@H]21)C[C@@]1(CCCc2cc(Cl)ccc21)CO3 = Non-Toxic
5. COc1nn(C)cc1C(=O)N[S@@]1(=O)=NC(=O)c2ccc3c(c2)N(C[C@@H]2CC[C@H]2[C@@H](OC)/C=C/C[C@H](C)C1)C[C@@]1(CCCc2cc(Cl)ccc21)CO3 = Toxic
6. CO[C@]1(CN2CCN3CCOC[C@@H]3C2)/C(F)=C/C[C@H](C)[C@@H](C)S(=O)(=O)NC(=O)c2ccc3c(c2)N(C[C@@H]2CCO[C@H]21)C[C@@]1(CCCc2cc(Cl)ccc21)CO3 = Toxic

Now let's try a different one.
Determine from records and report Activity for COc1nn(C)cc1C(=O)N[S@]1(=O)=NC(=O)c2ccc3c(c2)N(C[C@@H]2CCO[C@H]2[C@H](OC)/C(F)=C/C[C@H](C)C1)C[C@@]1(CCCc2cc(Cl)ccc21)CO3
Non-Toxic

---

Overview of reported solubility thermodynamic at 72 h across a group of compounds:
Assay: Thermodynamic (equilibrium) solubility of the compound measured after 3 days agitation in pH 2 buffer by LC-MS/MS analysis
Assay type: physicochemical
Conditions: time 3 day, read-out: Therm_solubility
Numeric only. Scale: µM

Examples with their reported solubility thermodynamic at 72 h follow.
1) COc1nn(C)cc1C(=O)N[S@@]1(=O)=NC(=O)c2ccc3c(c2)N(C[C@@H]2CCO[C@H]2[C@@](CN2CCN4CCOC[C@@H]4C2)(OC)/C(F)=C/C[C@H](C)C1)C[C@@]1(CCCc2cc(Cl)ccc21)CO3 = 516
2) COc1nn(C)cc1C(=O)N[S@@]1(=O)=NC(=O)c2ccc3c(c2)N(C[C@@H]2CCO[C@H]2[C@](CN2CCN4CCOC[C@@H]4C2)(OC)/C(F)=C/C[C@H](C)C1)C[C@@]1(CCCc2cc(Cl)ccc21)CO3 = 48

Now let's try a different one.
Determine from records and report solubility thermodynamic at 72 h for CO[C@]1(CN2CCN3CCOC[C@@H]3C2)/C(F)=C/C[C@H](C)[C@@H](C)S(=O)(=O)NC(=O)c2ccc3c(c2)N(C[C@@H]2CCO[C@H]21)C[C@@]1(CCCc2cc(Cl)ccc21)CO3
44

---

System: MOLP-8
Experiment: Induction apoptosis in human MOLP8 cells assessed as cell killing measured after 2 hrs by Caspase-Glo 3/7 Assay
Assay type: functional, cell-based
Settings: MOLP-8, 2 h
METRIC_NAME: AC50 (nM)
Numeric only. Scale: nM

1) C[C@@H]1[C@@H](C)C/C=C(\F)[C@@](O)(CC(=O)N(C)C)[C@@H]2OCC[C@H]2CN2C[C@@]3(CCCc4cc(Cl)ccc43)COc3ccc(cc32)C(=O)NS1(=O)=O = 436

Determine from records and report AC50 for COc1nn(C)cc1C(=O)N[S@]1(=O)=NC(=O)c2ccc3c(c2)N(C[C@@H]2CCO[C@H]2[C@H](OC)/C(F)=C/C[C@H](C)C1)C[C@@]1(CCCc2cc(Cl)ccc21)CO3
486

Determine from records and report AC50 for CO[C@@H]1/C(F)=C/C[C@H](C)[C@@H](C)S(=O)(=O)NC(=O)c2ccc3c(c2)N(C[C@@H]2CCO[C@H]21)C[C@@]1(CCCc2cc(Cl)ccc21)CO3
1120

---

Assay: Lipophilicity, CHI logD of compound at pH 2.6 by UPLC-TOF analysis
Format: physicochemical
Settings: buffer
Overview of reported chromatographic logD across a group of compounds:
Field format: numeric only.

Examples with their reported chromatographic logD follow.
1) CO[C@@]1(CN2CCN3CCCC[C@@H]3C2)/C(F)=C/C[C@H](C)[C@@H](C)S(=O)(=O)NC(=O)c2ccc3c(c2)N(C[C@@H]2CCO[C@H]21)C[C@@]1(CCCc2cc(Cl)ccc21)CO3 = 2.5
2) C[C@@H]1[C@@H](C)C/C=C(\F)[C@@](O)(CN2CCN3CCCC[C@@H]3C2)[C@@H]2OCC[C@H]2CN2C[C@@]3(CCCc4cc(Cl)ccc43)COc3ccc(cc32)C(=O)NS1(=O)=O = 2.5
3) CO[C@@]1(CN2CCN3CCOC[C@@H]3C2)/C(F)=C/C[C@H](C)[C@H](C)S(=O)(=O)NC(=O)c2ccc3c(c2)N(C[C@@H]2CCO[C@H]21)C[C@@]1(CCCc2cc(Cl)ccc21)CO3 = 3.4
4) C[C@@H]1[C@@H](C)C/C=C(\F)[C@H](OCCN2CCOCC2)[C@@H]2OCC[C@H]2CN2C[C@@]3(CCCc4cc(Cl)ccc43)COc3ccc(cc32)C(=O)NS1(=O)=O = 2.5

Determine from records and report chromatographic logD for C[C@@H]1[C@@H](C)C/C=C/[C@H](OCCN2CCOCC2)[C@@H]2OCC[C@H]2CN2C[C@@]3(CCCc4cc(Cl)ccc43)COc3ccc(cc32)C(=O)NS1(=O)=O
2.3

---

Experiment: Fraction unbound in mouse plasma at 5 uM incubated for 4.5 hrs by rapid equilibrium dialysis
Assay type: ADME, cell-free
Tick t if Fu is 0.03% or greater. Tick f if Fu is less than 0.03%.

Solved cases below.
1) Cc1c2c(nn1C)CSCc1cc(n(C)n1)CSc1cc(c3ccccc3c1)OCCCc1c(C(=O)O)n(C)c3c-2c(Cl)ccc13 [AZD-5991] = f
2) COc1nn(C)cc1C(=O)N[S@@]1(=O)=NC(=O)c2ccc3c(c2)N(C[C@@H]2CCO[C@H]2[C@](CN2CCN4CCOC[C@@H]4C2)(OC)/C(F)=C/C[C@H](C)C1)C[C@@]1(CCCc2cc(Cl)ccc21)CO3 = t
3) COc1nn(C)cc1C(=O)N[S@@]1(=O)=NC(=O)c2ccc3c(c2)N(C[C@@H]2CCO[C@H]2[C@@H](OC)/C(F)=C/C[C@H](C)C1)C[C@@]1(CCCc2cc(Cl)ccc21)CO3 = f

Fu >= 0.03% for CO[C@@]1(CN2CCN3CCOC[C@@H]3C2)/C(F)=C/C[C@H](C)[C@@H](C)S(=O)(=O)NC(=O)c2ccc3c(c2)N(C[C@@H]2CCO[C@H]21)C[C@@]1(CCCc2cc(Cl)ccc21)CO3 ?
t

Fu >= 0.03% for COc1nn(C)cc1C(=O)N[S@@]1(=O)=NC(=O)c2ccc3c(c2)N(C[C@@H]2CC[C@H]2[C@@H](OC)/C=C/C[C@H](C)C1)C[C@@]1(CCCc2cc(Cl)ccc21)CO3 ?
f

Fu >= 0.03% for Cc1c(-c2c(-c3ccc(F)o3)sc3ncnc(O[C@H](Cc4ccccc4OCc4ccnn4CC(F)(F)F)C(=O)O)c23)ccc(OCCN2CCN(C)CC2)c1Cl ?
f

Fu >= 0.03% for CO[C@]1(CN2CCN3CCCC[C@@H]3C2)/C=C/C[C@H](C)[C@@H](C)S(=O)(=O)NC(=O)c2ccc3c(c2)N(C[C@@H]2CC[C@H]21)C[C@@]1(CCCc2cc(Cl)ccc21)CO3 [MURIZATOCLAX] ?
t

Fu >= 0.03% for COc1nn(C)cc1C(=O)N[S@@]1(=O)=NC(=O)c2ccc3c(c2)N(C[C@@H]2CCO[C@H]2[C@@](CN2CCN4CCOC[C@@H]4C2)(OC)/C(F)=C/C[C@H](C)C1)C[C@@]1(CCCc2cc(Cl)ccc21)CO3 ?
t
